experiment: in vivo; parameters: species or system horse; conditions: horse, iv
metric-name: half-life

Input line: Output measured half-life for this item: N#CC(c1ccc(Cl)cc1)c1c(Cl)cc(-n2ncc(=O)[nH]c2=O)cc1Cl (stereo not shown)
Output line: ~48 h

###

test: in vivo; parameters: species or system horse; settings: horse, iv
metric-name: clearance (mL/min)
Numeric answer only, unit mL/min assumed.

Input line: Output measured clearance for this item: N#CC(c1ccc(Cl)cc1)c1c(Cl)cc(-n2ncc(=O)[nH]c2=O)cc1Cl (stereo not shown)
Output line: 55.3

###

experiment: in vivo; design: species or system horse; conditions: horse, iv
metric-name: AUC (µg·h/mL)
Numeric answer only, unit µg·h/mL assumed.

Input line: Output measured AUC for this item: N#CC(c1ccc(Cl)cc1)c1c(Cl)cc(-n2ncc(=O)[nH]c2=O)cc1Cl (stereo not shown) [diclazuril]
Output line: 452

###

assay: pKa of diclazuril; assay type: physicochemical; conditions: aqueous solution of the sodium salt of diclazuril; inferred from pH stability study of the sodium salt; read-out: pKa inferred from precipitation pH
metric-name: pKa

Input line: Output measured pKa for this item: N#CC(c1ccc(Cl)cc1)c1c(Cl)cc(-n2ncc(=O)[nH]c2=O)cc1Cl (stereo not shown) [diclazuril]
Output line: ~10.5
